Where do these numbers come from? They come from patent US20090312280A1.

molecular target: PKBa (Homo sapiens, UniProt P31749)
Sequence (P31749 whole entry): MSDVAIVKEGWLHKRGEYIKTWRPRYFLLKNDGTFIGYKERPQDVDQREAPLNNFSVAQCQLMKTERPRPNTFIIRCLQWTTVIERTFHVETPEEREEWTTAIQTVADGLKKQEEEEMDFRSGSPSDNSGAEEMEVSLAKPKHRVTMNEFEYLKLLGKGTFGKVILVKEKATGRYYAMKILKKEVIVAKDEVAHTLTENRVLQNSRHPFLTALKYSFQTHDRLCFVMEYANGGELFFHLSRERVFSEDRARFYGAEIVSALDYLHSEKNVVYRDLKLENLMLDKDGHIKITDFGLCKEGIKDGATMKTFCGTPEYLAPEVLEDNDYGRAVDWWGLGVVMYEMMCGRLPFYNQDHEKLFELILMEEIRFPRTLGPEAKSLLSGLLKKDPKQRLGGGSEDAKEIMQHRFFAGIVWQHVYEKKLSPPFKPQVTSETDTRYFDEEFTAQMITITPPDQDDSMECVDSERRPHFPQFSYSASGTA
readout: IC50 (µM)
Please reply with the bare figure in µM and do not write the unit itself.

Can you share its IC50? I mean this molecule: Cn1cc(-c2[nH]c3cc(NC(=O)[C@H](N)C4CCCCC4)cc4c3c2C=NNC4=O)cn1
9.2

###

target: Blk(m) (Mus musculus, UniProt P16277); assay: biochemical kinase screening assay
Sequence (P16277 whole entry): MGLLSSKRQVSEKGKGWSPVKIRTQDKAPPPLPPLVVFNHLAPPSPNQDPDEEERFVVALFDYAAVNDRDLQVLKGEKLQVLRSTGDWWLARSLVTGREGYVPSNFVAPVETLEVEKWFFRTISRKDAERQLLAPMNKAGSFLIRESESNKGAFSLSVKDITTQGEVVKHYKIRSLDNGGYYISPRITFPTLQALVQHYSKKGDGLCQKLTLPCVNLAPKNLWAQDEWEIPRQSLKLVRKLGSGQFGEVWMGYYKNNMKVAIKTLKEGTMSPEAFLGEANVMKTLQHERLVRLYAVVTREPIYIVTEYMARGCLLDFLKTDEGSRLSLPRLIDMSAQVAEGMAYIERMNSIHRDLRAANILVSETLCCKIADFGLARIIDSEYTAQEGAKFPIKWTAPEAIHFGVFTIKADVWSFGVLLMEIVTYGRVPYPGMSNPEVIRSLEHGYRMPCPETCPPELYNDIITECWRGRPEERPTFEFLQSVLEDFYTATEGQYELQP
readout: IC50 (nM)
Please reply with the bare figure in nM and do not write the unit itself.

Can you share its IC50? I mean this molecule: Cn1cc(-c2[nH]c3cc(NC(=O)[C@H](N)C4CCCCC4)cc4c3c2C=NNC4=O)cn1
365
